Test system: CCRIS mutagenicity, Ames/micronucleus/aberration tests
Test: CCRIS mutagenicity studies
Conditions: Test System: AMES SALMONELLA TYPHIMURIUM; Strain/Indicator: TA1537; Metabolic Activation: RAT, LIVER, S-9, AROCLOR 1254; Method: STANDARD PLATE
Calls of active or inactive are those of the source. How the calls were made is not given here. Where a SMILES comes first, the peptide text is derived from it.
Just give me one of these, please: active, inactive

query: For CC(C)(C#N)C(C)(C)C#N , which call appears in the assay record?
result: inactive

query: Which outcome was assigned to c1ccc2c(c1)cc1ccc3cc4ccccc4c4ccc2c1c34 in this test?
result: inactive

query: So what was the verdict on C1CCC2OCCOCCOCCOCCOC3CCCCC3OCCOCCOCCOCCOC2C1 (stereo not given) in this test?
result: inactive

query: Called result for C=C(C)C(=O)OCC
result: inactive

query: Test call, this compound: c1cc2ccc3ccc4ccc5ccc6ccc1c1c2c3c4c5c61
result: active

query: Lab log entry: Nc1ccc(N=Nc2ccc(N)cc2)cc1 — outcome as called in the assay?
result: inactive

query: GET /call?item= CC1=CCC(C(C)(C)O)CC1 (stereo not given) returns the recorded outcome of this test.
result: inactive

query: Lab log entry: Cc1cc(C(=O)NNCc2ccccc2)no1 — outcome as called in the assay?
result: inactive

query: # outcome recorded in this test, key = NCCCC[C@H](NC(=O)[C@H](Cc1c[nH]c2ccccc12)NC(=O)[C@@H](N)CCCCN)C(=O)O (H-Lys-Trp-Lys-OH)
result: inactive

query: For O=C(O)/C=C/c1ccc(O)c(O)c1 , which call appears in the assay record?
result: inactive

query: I'd appreciate the recorded outcome for Cc1ccc(N)c(S(=O)(=O)O)c1 from this test.
result: inactive

query: Record request — test call for C/C=N/O
result: inactive

query: Can you look up the reported call for O=c1cn[nH]c(=O)[nH]1 for me?
result: inactive

query: // outcome(item) with item = NCCNCCN
result: inactive

query: Assay result, entry NC(=O)c1ccc(N)cc1 — outcome?
result: inactive

* * *

Tested on: CCRIS mutagenicity, Ames/micronucleus/aberration tests
Test: CCRIS mutagenicity studies
Settings: Test System: AMES SALMONELLA TYPHIMURIUM; Strain/Indicator: TA100; Metabolic Activation: NONE; Method: STANDARD PLATE
The source made the active and inactive calls. How the calls were made is not given here.
Readout: mutagenic call

Please review the following examples before continuing.
{"columns": ["Compound", "Result Value"],
 "data": [
  ["O=NN(CCCl)C(=O)NC1CCCCC1", "active; positive"],
  ["Cc1ccccc1N=Nc1ccc(N=Nc2c(O)ccc3ccccc23)c(C)c1", "inactive; negative"],
  ["Nc1nc2c(ncn2[C@@H]2C=C[C@H](CO)C2)c(=O)[nH]1", "inactive; negative"],
  ["CC(O)Cc1cc(N)cc([N+](=O)[O-])c1N (stereo unspecified)", "inactive; negative"],
  ["CC(C)OC(=O)C(C)(C)Oc1ccc(C(=O)c2ccc(Cl)cc2)cc1", "inactive; negative"],
  ["C[C@]12CC[C@@H]3c4ccc(O)cc4CC[C@H]3[C@@H]1CC[C@@H]2O", "inactive; negative"],
  ["OC[C@@H](O)[C@@H](O)[C@H](O)[C@H](O)CO", "inactive; negative"],
  ["O=C/C(Br)=C/c1ccccc1", "active; positive"]
]}

query: Tell us which mutagenic call value is on record for c1cc2ccc3ccc4ccc5ccc6ccc1c1c2c3c4c5c61
result: inactive; negative

query: Input CC(=O)OC1Cc2c3ccc4ccccc4c3cc3ccc(C)c1c23 (stereo unspecified) , output reported mutagenic call.
result: active; positive

query: Given CN(C)CCCNc1c2ccccc2nc2c(Cl)ccc([N+](=O)[O-])c12 , respond with its mutagenic call.
result: active; positive
